molecular target: Thymidylate synthase (Homo sapiens, UniProt P04818)
Sequence (P04818 whole entry): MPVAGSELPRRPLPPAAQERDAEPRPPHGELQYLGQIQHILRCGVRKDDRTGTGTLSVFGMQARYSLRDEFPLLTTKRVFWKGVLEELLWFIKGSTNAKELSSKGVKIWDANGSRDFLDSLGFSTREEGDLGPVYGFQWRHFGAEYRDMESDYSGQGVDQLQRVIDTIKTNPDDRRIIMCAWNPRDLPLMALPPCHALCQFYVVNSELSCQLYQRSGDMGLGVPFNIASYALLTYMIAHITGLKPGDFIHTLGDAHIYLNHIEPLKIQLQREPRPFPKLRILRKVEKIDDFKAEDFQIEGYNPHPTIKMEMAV
measurement kind: Kd (nM)
Respond numerically; units are nM and should not be typed.

**Query** Supply recorded Kd for `O=C(NCCc1c[nH]c2ccccc12)/C(=C\c1cccs1)NC(=O)c1cccs1` here.
**Result** 2000

###

biological target: Thymidylate synthase (Homo sapiens); assay: Tritium Release Assay; settings: pH 7.5; 4 °C
measurement kind: pIC50
Keep it numeric: pIC50 is minus log10 of the concentration in mol/L.

**Query** Entry `O=C(NCc1cccs1)c1nc(-c2ccccc2)no1` needs its pIC50 filled in; supply it.
**Result** 3.94

**Query** Write down pIC50 measured for item `CCN1C(=O)c2cccc3c(NC(=O)c4cccs4)ccc1c23`
**Result** 3.80

**Query** Given `O=C(O)c1ccc(/N=C/c2ccc(-c3cccs3)s2)cc1` , respond with its pIC50.
**Result** 3.62

**Query** Specify pIC50 for `CC(=NNC(=O)Cc1c(C)[nH]c2ccc(C)cc12)c1cccs1` and stop.
**Result** 3.80
